Test Name: Dog pharmacokinetics after oral administration of compound of example No. 3 (mono acetate salt)
Format: in vivo, Beagle dogs
Condition Parameters: blood, po; fasted male Beagle dogs, example No. 3 mono acetate salt p.o. 100 mg/dog, 8 h
Reported Metric: concentration at 8 h (µM)
Answers are plain numbers, in µM.

Query: # get_value(readout='concentration at 8 h', item= Cc1cccc2c(C3=C(c4nc(N5CCNC6(CC6)C5)cc5ccccc45)C(=O)NC3=O)c[nH]c12 [Example 3] )
Response: 1.24

###

Test Name: Dog pharmacokinetics after oral administration of compound of example No. 1
Type: in vivo, Beagle dogs
Condition Parameters: dog, blood, po; male Beagle dogs, example 1 3.0 mg/kg p.o., 24 h
Reported Metric: concentration at 24 h (nM)
Numbers only, in nM.

Query: Reported concentration at 24 h, compound `Cc1cccc2c(C3=C(c4nc(N5CCNC6(CC6)C5)cc5ccccc45)C(=O)NC3=O)c[nH]c12` : ____
Response: 67.9

Value source: patent US9029396B2
